Reference source: patent EP4768499A1

TEST METHOD NOTES: Metabolic stability test: liver microsomal stability assay
Type: in vitro ADME, mouse
CONDITIONS: mouse liver microsomes 0.5 mg protein/mL, compound 1 µM, absence of NADPH
Positions of bridges follow the written chain, without caps; N, C: chain ends. Non-standard residues stand in square brackets, D forms with d. Residues, ends and D or L forms follow the SMILES beside them. *: point of attachment. NMeF = CN[C@@H](Cc1ccccc1)C(=O)O; NMeI = CC[C@H](C)[C@H](NC)C(=O)O; NMeT = CN[C@H](C(=O)O)[C@@H](C)O; NMeD = CN[C@@H](CC(=O)O)C(=O)O; NMeL = CN[C@@H](CC(C)C)C(=O)O; NMeV = CN[C@H](C(=O)O)C(C)C; NMeA = CN[C@@H](C)C(=O)O; Piperidide = C1CCN(*)CC1; Abu = CC[C@H](N)C(=O)O; Sar = CNCC(=O)O
MEASURE NAME: Mouse Hepatic Microsome CLh,int NADPH(-) (µL/min/mg Protein)
Please respond with the number in µL/min/mg Protein and leave the unit unwritten.

{"columns": ["COMPOUND", "Mouse Hepatic Microsome CLh,int NADPH(-) [µL/min/mg Protein]"],
 "data": [
  ["CC[C@@H]1NC(=O)[C@@H]2CCCN2C(=O)[C@H](C(C)C)NC(=O)[C@H](Cc2ccccc2)N(C)C(=O)[C@H](C)N(C)C(=O)[C@H](CC(C)C)N(C)C(=O)[C@H]([C@@H](C)O)N(C)C(=O)[C@H](CC(C)C)N(C)C(=O)[C@H](CC)NC(=O)[C@H](Cc2ccccc2)N(C)C(=O)CN(C)C(=O)C[C@@H](C(=O)N2CCCCC2)NC(=O)[C@H](C(C)C)N(C)C1=O [pd122] ([Sar][NMeF][Abu][NMeL][NMeT][NMeL][NMeA][NMeF]VP[Abu][NMeV]D-Piperidide; lactam N-13)", 9.6]
]}

Alright, here's another compound for you.
Task item: Recall and state the measured Mouse Hepatic Microsome CLh,int NADPH(-) for CC[C@@H]1NC(=O)[C@H](Cc2ccccc2)N(C)C(=O)[C@H](CC(C)C)N(C)C(=O)[C@H](CC(C)C)NC(=O)[C@H](C)N(C)C(=O)C[C@@H](C(=O)N2CCCCC2)N(C)C(=O)[C@H](CC(C)C)N(C)C(=O)[C@H]([C@@H](C)CC)NC(=O)[C@H](Cc2ccccc2)N(C)C(=O)[C@H]([C@@H](C)O)N(C)C(=O)[C@H]([C@@H](C)CC)N(C)C(=O)[C@H](CC(C)C)NC(=O)CN(C)C1=O [pd163] ([NMeA]L[NMeL][NMeF][Abu][Sar]L[NMeI][NMeT][NMeF]I[NMeL][NMeD]-Piperidide; lactam N-13) .
Reply: 36.5

---

TEST METHOD NOTES: Mouse PK test: plasma concentration after intravenous or oral administration
Assay type: in vivo, mice (C57BL/6J)
CONDITIONS: male, C57BL/6J, in vivo, po, 50 mg/kg
Starred links: 1 amine or outer side, 2 acyl side, 3 side chain; linkers in the order of their positions; H or OH if unused. Non-standard residues stand in square brackets, D forms with d. Residues, ends and D or L forms follow the SMILES beside them. *: point of attachment. NMedβ3hAla = C[C@H](CC(=O)[*:2])N(C)[*:1]; NMeF = CN[C@@H](Cc1ccccc1)C(=O)O; NMeI = CC[C@H](C)[C@H](NC)C(=O)O; NMeβAla = CN(CCC(=O)[*:2])[*:1]; NMeL = CN[C@@H](CC(C)C)C(=O)O; Sar = CNCC(=O)O; tBu = CC(C)(C)*
MEASURE NAME: Tmax (h)
Kindly answer with a numeric value in h, unit omitted.

Task item: Quickly give me recorded Tmax for CC[C@H](C)[C@H]1C(=O)N[C@@H](CC(C)C)C(=O)N(C)CC(=O)N(C)[C@@H](CC(C)C)C(=O)N[C@@H](CC(C)C)C(=O)N(C)[C@H](C)CC(=O)N(C)[C@@H](CC(C)C)C(=O)N(C)CCC(=O)N(C)[C@@H](CC(C)C)C(=O)N[C@@H](COC(C)(C)C)C(=O)N(C)[C@@H](Cc2ccccc2)C(=O)N(C)CCC(=O)N(C)[C@@H](Cc2ccccc2)C(=O)N1C [pd144] (cyclo(L[Sar][NMeL]L[NMedβ3hAla][NMeL][NMeβAla][NMeL]S(tBu)[NMeF][NMeβAla][NMeF][NMeI]))
Reply: 1.3

---

TEST METHOD NOTES: Metabolic stability test: liver microsomal stability assay
Format: in vitro ADME, mouse
CONDITIONS: male, pH 7.4; mouse liver microsomes 0.5 mg protein/mL, compound 1 µM, presence of NADPH; read-out: Mouse Hepatic Microsome CLh,int NADPH(+)
Starred links: 1 amine or outer side, 2 acyl side, 3 side chain; linkers in the order of their positions; H or OH if unused. Positions of bridges follow the written chain, without caps; N, C: chain ends. Non-standard residues stand in square brackets, D forms with d. Residues, ends and D or L forms follow the SMILES beside them. *: point of attachment. NMeF = CN[C@@H](Cc1ccccc1)C(=O)O; NMeT = CN[C@H](C(=O)O)[C@@H](C)O; NMeβAla = CN(CCC(=O)[*:2])[*:1]; NMeD = CN[C@@H](CC(=O)O)C(=O)O; NMeL = CN[C@@H](CC(C)C)C(=O)O; NMeA = CN[C@@H](C)C(=O)O; Piperidide = C1CCN(*)CC1; tBu = CC(C)(C)*
MEASURE NAME: microsomal CLint at 1 µM (µL/min/mg)
Write down the numeric answer in µL/min/mg and omit the unit.

Task item: Fill in microsomal CLint at 1 µM for record CC[C@H](C)[C@@H]1NC(=O)[C@H](CC(C)C)N(C)C(=O)[C@H](CC(C)C)NC(=O)CCN(C)C(=O)C[C@@H](C(=O)N2CCCCC2)N(C)C(=O)[C@H](CC(C)C)N(C)C(=O)[C@H](C)N(C)C(=O)[C@H]([C@@H](C)O)N(C)C(=O)[C@H](CC(C)C)N(C)C(=O)[C@H](COC(C)(C)C)NC(=O)[C@H](Cc2ccccc2)N(C)C(=O)[C@H](CC(C)C)N(C)C(=O)[C@H](Cc2ccccc2)N(C)C1=O [pd166] ([NMeβAla]L[NMeL]I[NMeF][NMeL][NMeF]S(tBu)[NMeL][NMeT][NMeA][NMeL][NMeD]-Piperidide; lactam N-13)
Reply: 32.4

---

Quick list: Papp A→B per entry.
TEST METHOD NOTES: Membrane permeability test using Caco-2 cells with preincubation
Assay type: in vitro ADME
CONDITIONS: Caco-2; preincubation 20 to 24 hours; Apical FaSSIF/HBSS pH 6.0, Basal HBSS 4% BSA pH 7.4; 180 minutes; read-out: Caco2 Papp
Starred links: 1 amine or outer side, 2 acyl side, 3 side chain; linkers in the order of their positions; H or OH if unused. Positions of bridges follow the written chain, without caps; N, C: chain ends. Non-standard residues stand in square brackets, D forms with d. Residues, ends and D or L forms follow the SMILES beside them. *: point of attachment. NMeF = CN[C@@H](Cc1ccccc1)C(=O)O; NMeGABA = CN(CCCC(=O)[*:2])[*:1]; NMeI = CC[C@H](C)[C@H](NC)C(=O)O; NMeT = CN[C@H](C(=O)O)[C@@H](C)O; NMeβAla = CN(CCC(=O)[*:2])[*:1]; NMeL = CN[C@@H](CC(C)C)C(=O)O; NMeV = CN[C@H](C(=O)O)C(C)C; d(β3hA) = C[C@@H](N)CC(=O)O; NMeAbu = CC[C@H](NC)C(=O)O; NMeA = CN[C@@H](C)C(=O)O; Piperidide = C1CCN(*)CC1; Abu = CC[C@H](N)C(=O)O
Value expressed in ×10⁻⁶ cm/s; do not type the unit.

{"columns": ["MOLECULE", "UNITS TEXT", "Papp A→B"],
 "data": [
  ["CC[C@H](C)[C@@H]1NC(=O)[C@H](C)N(C)C(=O)[C@H]([C@@H](C)O)N(C)C(=O)[C@H](CC(C)C)N(C)C(=O)[C@H](C(C)C)NC(=O)[C@H](Cc2ccccc2)N(C)C(=O)[C@H](Cc2ccccc2)N(C)C(=O)[C@H](C)NC(=O)[C@H](CC)N(C)C(=O)[C@H]([C@@H](C)CC)NC(=O)CCCN(C)C(=O)C[C@@H](C)NC(=O)[C@H](C(C)C)N(C)C1=O [pd132] (cyclo(A[NMeF][NMeF]V[NMeL][NMeT][NMeA]I[NMeV][d(β3hA)][NMeGABA]I[NMeAbu]))", "×10⁻⁶ cm/s", 0.36]
]}

In the following, a different molecule is considered.
Task item: Please report Papp A→B for the following molecule: CC[C@@H]1NC(=O)[C@H](CC(C)C)N(C)C(=O)[C@H](Cc2ccccc2)N(C)C(=O)[C@H](CC(C)C)N(C)C(=O)[C@H](C)NC(=O)C[C@@H](C(=O)N2CCCCC2)NC(=O)[C@H](C(C)C)N(C)C(=O)[C@@H]2CCCN2C(=O)CCN(C)C(=O)[C@H](CC(C)C)NC(=O)[C@H]([C@@H](C)CC)N(C)C(=O)[C@H]([C@@H](C)O)NC(=O)[C@H](Cc2ccccc2)N(C)C1=O [pd112] (A[NMeL][NMeF][NMeL][Abu][NMeF]T[NMeI]L[NMeβAla]P[NMeV]D-Piperidide; lactam N-13)
Reply: 0.35
